readout-label: melting point

Sample records with melting point:
## Task Tell me the measured melting point of CCc1cc(OCc2ccc(-c3ccccc3-c3nnnn3-c3ccc([N+](=O)[O-])cc3)cc2)c2ccccc2n1 , please.
## Result 204 to 206 °C

## Task What value of melting point has been reported for the following compound? COc1cc(COc2cc(CCC(=O)O)n(-c3ccccc3)n2)ccc1OCc1nc(-c2ccccc2)oc1C
## Result 157 to 158 °C

More entries:
## Task Which value of melting point has been reported for Cc1c(Br)c(=O)n(C2CCCCC2)c(=O)n1N=Cc1ccc(Cl)c(Cl)c1 in the records?
## Result 188 to 189 °C

## Task Consider the compound Nc1c(-c2csc(-c3ccncc3)n2)c(=O)[nH]c2ccccc12 and give its measured melting point.
## Result > 250 °C

## Task Requested read-out: melting point. Entry: CCCCC[C@H]1CC[C@H](c2ccc(CC#N)cc2)CC1
## Result 53 °C

## Task Using the record for CC(C)(Cc1ccccc1)C(NC(=O)c1ccc(Cl)cc1)NC(=NC#N)Nc1cccnc1 (stereo not given) , report its melting point.
## Result 182 to 183 °C

## Task Can you look up the measured melting point of CCOC(=O)C(Cc1nc2cc(Cl)c(Cl)cc2nc1CP(=O)(OC)OC)(NC(C)=O)C(=O)OCC for me?
## Result 130 to 132 °C

====

Consider the following compounds and their measured melting point readings.
Write the number in °C without appending the unit.

## Task Recorded melting point of CNc1ccc(C=CC(=O)N2CCc3c([nH]c4ccccc34)C2c2ccc3c(c2)CCO3)cn1 (stereo not given) , please.
## Result 171

Alright, here's another compound for you.
## Task What does the data say about its melting point? Entry: CCOC(=O)C1=C(N)NC(C)=C(C(C)=O)C1c1cccc([N+](=O)[O-])c1 (stereo not given)
## Result 217

====

Here the recorded melting point is given for each entry.

Here are 2 compounds together with their reported answers.
## Task For the compound shown here, COc1ccc(Br)cc1-c1cc(-c2ccc(Br)cc2)on1 , give the reported melting point.
## Result 127 to 159 °C

## Task melting point lookup needed for CC(C)Oc1cc(N2C(=O)C3COCCN3C2C(=O)O)c(F)cc1Cl (stereo not given) , thanks.
## Result 59 to 61 °C

Continuing:
## Task For the compound shown here, CC(C)c1ccc(-n2ccn(-c3cccc(C(=O)O)c3)c2=O)cc1 , give the reported melting point.
## Result 283 to 285 °C

## Task Reported melting point for C=CCn1cc(C(=O)O)c(=O)c2cc(F)c(N3CCN(C)CC3)cc21 : what is it?
## Result 208 °C

## Task Requested field: melting point. Item: CCOC(=O)N(O)Cc1cccc(Nc2ccccc2C(=O)OC)c1Cl
## Result 108 to 110 °C

====

melting point values for the molecules below.

# example entries with known answers
## Task Request the reported melting point associated with Cc1noc(NS(=O)(=O)c2cccc3c(NC(=O)C(C)C)cccc23)c1C
## Result 177 to 180 °C

## Task Can you share its melting point? I mean this molecule: CC12CCC3c4ccc(C(=O)O)cc4CCC3C1CCC2C(=O)c1ccc(-c2ccccc2)cc1 (stereo not given)
## Result 268 to 270 °C

## Task Find the recorded melting point belonging to COC(=O)C1CCc2onc(-c3ccc(Cl)cc3)c2CC1 (stereo not given) and report it.
## Result 70 to 71 °C

## Task // query melting point value for entry Cc1cccc(Nc2ccccc2C(=O)N(C)O)c1C
## Result 70 to 71 °C

## Task What value of melting point has been reported for the following molecule? COc1ccc(C(=O)CC(=O)C(F)(F)F)cc1OC
## Result 87 to 89 °C

## Task Query (molecule): COc1ccc(-c2ccc(C=O)c3occc23)cc1 ; field requested: melting point
## Result 104 to 105 °C

## Task Which melting point reading was recorded for the molecule O=C(O)c1cn(CC2CC2)c2c(F)c(F)c(F)cc2c1=O ?
## Result 223 to 255 °C

## Task Consider the molecule CC(C)OC(=O)Nc1c(C(O)(C(F)(F)F)C(F)(F)F)ccc2ccccc12 and give its measured melting point.
## Result 139 to 141 °C

***
## Task Which melting point value belongs to CCn1nc(-c2ccccc2)c(C(C)=O)c(Nc2cc(C)no2)c1=O ?
## Result 178 to 179 °C

## Task GET /values?readout=melting point&item= CCN1CCC(=O)N(c2c(C)cccc2C)C1=S
## Result 124 to 126 °C

====

readout-label: melting point

## Task Look up melting point: O=C(Nc1cc(Cl)c([N+](=O)[O-])cc1O)c1ccccc1
## Result < 250 °C

Could you now look at the following compound, please?
## Task Quick one: melting point of COC(=O)CCCCNC(=NC(=O)OCc1ccccc1)NC(=O)OCc1ccccc1 ?
## Result 36 to 39 °C

====

Documented melting point across a set of compounds

Record excerpt, results attached:
## Task Entry CC(C)(C)c1nc(C=CC(COc2ccccc2)=NO)nc(C(C)(C)C)c1O : reported melting point = ?
## Result 130 to 135 °C

## Task I am curious: what melting point value has been reported for Fc1cc(F)c2c(c1)C(n1cc[nH]c1=S)CC2 (single isomer, unassigned; (+)) ?
## Result 191 to 193 °C

## Task Looking for the measured melting point of Cc1nnc(-c2ccc3occ(-c4ccc(S(C)=O)cc4)c3n2)o1 (configuration not stated) , can you help?
## Result 219 to 220 °C

## Task May I ask what melting point has been recorded for Cc1nc(C)c(C(C)(O)c2ccoc2)s1 (configuration not stated) ?
## Result 104 to 105 °C

## Task I have this compound here, N=C(NS(=O)(=O)c1ccc(F)cc1)N1CC(c2ccccc2)C(c2ccc(Cl)cc2)=N1 (configuration not stated) , and I need its recorded melting point.
## Result 214 to 215 °C

## Task Suppose we examine the compound Cc1ccc(C2c3c(C)cc(C)c(C)c3OC2(C)C)cc1 (configuration not stated) ; what melting point value has been reported?
## Result 117 to 118 °C

New cases:
## Task Given the compound CCCCCCc1cc2c(s1)NC(=O)CN=C2c1ccc(OC)cc1 , what is its reported melting point?
## Result 123 to 125 °C

## Task So what's the measured melting point for this one? CCc1cc2oc(=O)c(C#N)c(C)c2cc1CC
## Result 169 °C

## Task Item under review: COc1cc(-c2csc(-n3c(C)ccc3C)n2)c(OC)cc1C . Reported melting point?
## Result 92 to 93 °C

## Task Given the compound O=C(CNc1ccccc1)Nc1cc(F)c(F)cc1C(=O)O , what is its reported melting point?
## Result 124 to 126 °C

## Task Endpoint output: melting point of O=C(O)COc1cc(-c2c3ccccc3c(Br)c3sc4ccccc4c23)ccc1Br . Value?
## Result 174 to 175 °C

## Task Value lookup for melting point; key = CC1(c2ccc(OCc3ccccc3)c(C=O)c2)OCCO1
## Result 78 to 80 °C

====

# reported melting point; entries follow

## Task Give its melting point value. Item: CCn1c(C(F)(F)F)n[nH]c1=S
## Result 93 °C

====

readout-label: melting point

Completed entries (count: 10):
## Task Request the reported melting point associated with CCCCCP(=O)(CC(=O)OC)OCc1ccc(-c2ccccc2C(=O)O)cc1 (stereo not given)
## Result 101 to 102 °C

## Task Entry CC(C)(C)OC(=O)NCc1cccc(C2CCNCC2)c1 has what melting point?
## Result 79 to 84 °C

## Task Given the entry CC1=CSC(n2ccc(OCc3ccc(C(F)(F)F)o3)cc2=O)N1C(=O)O (stereo not given) , report its measured melting point.
## Result 261 to 263 °C

## Task What measured melting point goes with Cc1oc(-c2ccco2)nc1COc1ccc(COc2nn(Cc3ccccc3)cc2C(=O)O)cn1 ?
## Result 151 to 152 °C

## Task Reported melting point, compound CCOC(=O)COc1ccc(CCNC(=O)C[C@H]2O[C@H](c3cccc(OC)c3OC)c3cc(Cl)ccc3N(CC(C)(C)CO)C2=O)cc1 : ____
## Result 142 to 145 °C

## Task Query (compound): CC(C)S(=O)(=O)Nc1ccc(C(=O)Nc2ccc(Br)cc2)cc1 ; field requested: melting point
## Result 213 to 214 °C

## Task Entry CS(=O)(=O)c1ccc(-c2cccn2-c2ccc3c(c2)OCO3)cc1 has what melting point?
## Result 172 to 175 °C

## Task # lookup: melting point of COc1ccccc1N1CCN(C(=O)[C@H](N)CC2CCCCC2)CC1
## Result 165 to 168 °C

## Task Entry CC(C)C1NC(=O)C(CSSCC2NC(=O)C(C(C)C)NC2=O)NC1=O (stereo not given) : reported melting point = ?
## Result 270 °C

## Task I am curious: what melting point value has been reported for N#Cc1ccc(CC[C@H]2CC[C@H](CO)CC2)cc1 ?
## Result 119 to 121 °C

---
## Task Look up melting point for this compound: OCC(O)(c1ccccc1)C(Cl)c1ccccc1 (stereo not given)
## Result 108 to 109 °C

## Task Record request: melting point value, item CCOC(=O)c1[nH]c2c(O)cccc2c1C
## Result 187 to 190 °C

## Task Return reported melting point; argument: O=C1c2ccccc2C(O)N1CCCOc1ccncc1 (stereo not given)
## Result 124 to 125 °C

## Task Given CON(C)Cc1nc2c(N)nc3cc(-c4cccnc4)cnc3c2n1CC(C)(C)O , state its recorded melting point.
## Result 187 to 189 °C

## Task What does the record list as melting point for Cc1oc(-c2ccccc2)nc1C(O)COc1ccc(C=C2SC(=S)NC2=O)nc1 (stereo not given) ?
## Result 218 °C

## Task // returns reported melting point for input CCN(Cc1cc(C(C)=O)ccc1NC(C)=O)C1CCCCC1
## Result 98 to 100 °C

## Task Field request: melting point | item: N[C@]1(C(=O)O)C=C[C@H]2[C@H](C(=O)O)[C@H]21
## Result > 250 °C

## Task Would you mind telling me what melting point value was observed for C#Cc1ncn2c(C(F)F)cc(-c3ccc(C(F)(F)F)cc3)nc12 ?
## Result 135 °C

## Task Given the compound COc1ccc(N(S(C)(=O)=O)S(C)(=O)=O)cc1CN1CCC(=O)C(C(c2ccccc2)c2ccccc2)C1 (stereo not given) , what is its reported melting point?
## Result 132 to 135 °C

## Task # query: melting point of entry CC(c1ncncc1Cl)C(O)(Cn1cncn1)c1ccc(F)cc1F (stereo not given)
## Result 128 °C

## Task I have this compound here, CC(C)N(CCn1c(CO)nc2c(N)nc3ccccc3c21)C(N)=O , and I need its recorded melting point.
## Result > 240 °C

## Task I'd like to know its melting point. The compound in question is O=C(O)/C=C/C=C(c1ccc(F)cc1)c1ccc(F)cc1
## Result 186 to 188 °C

## Task Requested read-out: melting point. Entry: CC1CC(C(=O)Nc2ccccc2)(C(=O)OC(C)(C)C)N(C(=O)CNC(=O)OC(C)(C)C)C1c1ccccc1 (stereo not given)
## Result 182 °C
